meta.source: patent US20170101476A1

Molecular target: T1, Human CXCR2 (human, UniProt P25025 1-360)
T1 sequence: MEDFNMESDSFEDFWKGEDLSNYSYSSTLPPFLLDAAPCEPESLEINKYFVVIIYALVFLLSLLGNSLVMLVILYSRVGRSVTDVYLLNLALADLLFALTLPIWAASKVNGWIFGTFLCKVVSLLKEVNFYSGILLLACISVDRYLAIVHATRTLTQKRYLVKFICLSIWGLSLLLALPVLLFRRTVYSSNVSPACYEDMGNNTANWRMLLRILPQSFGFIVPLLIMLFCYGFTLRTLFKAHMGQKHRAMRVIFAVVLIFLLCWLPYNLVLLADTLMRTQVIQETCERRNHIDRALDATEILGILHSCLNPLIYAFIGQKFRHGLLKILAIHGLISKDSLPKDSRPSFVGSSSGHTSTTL
Assay: cell-based or functional assay
reported.property: Human Chemotaxis IC50 (GROα) (nM)

2B2 (VHH, not shown: small tags and cut ends) VHH: EVQLVESGGELVQPGGSLRLSCAASGSILTINAMGWYRQAPGKQRELVVRRTRGGSTTYQDSVKGRFTISADIAKKTMYLQMNSLKPEDTAVYYCMLDDRGGVYWGQGTQVTVSS: 50
127D01 (VHH, not shown: small tags and cut ends) VHH: EVQLVESGGGLVQAGESLRLSCAASGSTFDFKVMGWYRQPPGKQREGVAAIRLSGNMHYAESVKGRFTISKANAKNTVYLQMNSLRPEDTAVYYCKVNIRGQDYWGQGTQVTVSS: 3.9

A = 163E03 (VHH, not shown: small tags and cut ends) VHH: EVQLVESGGGLVQPGGSLRLSCVASGRIFSSNAMGWFRQAPGKEREFVAAITWRSGGSAYYADSAKGRFTISRDNAKNTVYLQMNSLKPEDTAVYYCAAGGSSWLSFPPDYWGQGTQVTVSS
B = 097A09 (VHH, not shown: small tags and cut ends) VHH: EVQLVESGGGLVQPGGSLRLSCVASGSIVRINTMGWYRQTPGKQRELVADITSGGNINYIDAVKGRFTISRDNTKNTVYLQMNSLKPEDTAVYYCNAEIVVLVGVWTQRARTGNYWGQGTQVTVSS
Exam item: Lower value of Human Chemotaxis IC50 (GROα) belongs to which: A or B ? Refer to your chosen entry by its label in the reply.
Marked response: A
(A: 1.3 nM, B: 4.8 nM)
